The origin of these recorded values is patent US7304037B2.

Tested on: B16F10 mouse melanoma cell line
Assay type: cell-based
Would you kindly list IC50 for each of these compounds?
Give bare numbers, in nM.

compound	data.value
CCCNC(=O)Nc1cccc(S(=O)(=O)Nc2cccc(C(CC(=O)O)NC(=O)Nc3ccc(NC(=S)NCC(=O)N4CCC[C@H]4C(=O)N[C@@H](CC(C)C)C(=O)O[C@]4(CC)C(=O)OCc5c4cc4n(c5=O)Cc5cc6ccccc6nc5-4)cc3)c2)c1 (single isomer, unassigned) [Example 9]	80
CCCNC(=O)Nc1cccc(S(=O)(=O)Nc2cccc(C(CC(=O)O)NC(=O)Nc3ccc(NC(=S)N[C@@H](Cc4c[nH]cn4)C(=O)N4CCC[C@H]4C(=O)N[C@H](C(=O)O[C@]4(CC)C(=O)OCc5c4cc4n(c5=O)Cc5cc6ccccc6nc5-4)C(C)C)cc3)c2)c1 (single isomer, unassigned) [Example 5]	1000
CCCNC(=O)Nc1cccc(S(=O)(=O)Nc2cccc(C(CC(=O)O)NC(=O)Nc3ccc(NC(=S)N[C@@H](C)C(=O)N4CCC[C@H]4C(=O)N[C@H](C(=O)O[C@]4(CC)C(=O)OCc5c4cc4n(c5=O)Cc5cc6ccccc6nc5-4)C(C)C)cc3)c2)c1 (single isomer, unassigned) [Example 3]	700
CCCNC(=O)Nc1cccc(S(=O)(=O)Nc2cccc(C(CC(=O)O)NC(=O)Nc3ccc(NC(=S)N[C@@H](CCC)C(=O)N4CCC[C@H]4C(=O)N[C@H](C(=O)O[C@]4(CC)C(=O)OCc5c4cc4n(c5=O)Cc5cc6ccccc6nc5-4)C(C)C)cc3)c2)c1 (single isomer, unassigned) [Example 7]	1000
CCCNC(=O)Nc1cccc(S(=O)(=O)Nc2cccc(C(CC(=O)[O-])NC(=O)Nc3ccc(NC(=S)NCC(=O)N4CCC[C@H]4C(=O)N[C@H](C(=O)O[C@]4(CC)C(=O)OCc5c4cc4n(c5=O)Cc5cc6ccccc6nc5-4)C(C)C)cc3)c2)c1.[Na+] (single isomer, unassigned) [Example 1]	160
CCCNC(=O)Nc1cccc(S(=O)(=O)Nc2cccc(C(CC(=O)O)NC(=O)Nc3ccc(NC(=S)N[C@@H](CC(N)=O)C(=O)N4CCC[C@H]4C(=O)N[C@H](C(=O)O[C@]4(CC)C(=O)OCc5c4cc4n(c5=O)Cc5cc6ccccc6nc5-4)C(C)C)cc3)c2)c1 (single isomer, unassigned) [Example 6]	600

I need IC50 for every entry listed below, if you could help.
1. CCCNC(=O)Nc1cccc(S(=O)(=O)Nc2cccc(C(CC(=O)[O-])NC(=O)Nc3ccc(NC(=S)NCC(=O)N4CCC[C@H]4C(=O)N[C@H](C(=O)O[C@]4(CC)C(=O)OCc5c4cc4n(c5=O)Cc5cc6ccccc6nc5-4)C(C)C)cc3)c2)c1.[Na+] (single isomer, unassigned) [Example 2]
2. CCCNC(=O)Nc1cccc(S(=O)(=O)Nc2cccc(C(CC(=O)O)NC(=O)Nc3ccc(NC(=S)N[C@@H](CC(=O)O)C(=O)N4CCC[C@H]4C(=O)N[C@H](C(=O)O[C@]4(CC)C(=O)OCc5c4cc4n(c5=O)Cc5cc6ccccc6nc5-4)C(C)C)cc3)c2)c1 (single isomer, unassigned) [Example 8]
3. CCCNC(=O)Nc1cccc(S(=O)(=O)Nc2cccc(C(CC(=O)O)NC(=O)Nc3ccc(NC(=S)N[C@@H](C)C(=O)N4CCC[C@H]4C(=O)N[C@H](C(=O)O[C@]4(CC)C(=O)OCc5c4cc4n(c5=O)Cc5cc6ccccc6nc5-4)C(C)C)cc3)c2)c1 (single isomer, unassigned) [Example 4]

Output line:
[400, 300, 700]
